Overview of recorded %Inh for various compounds
# Test system: SYK
# Experimental Setup: concentration: 1 μM, replicates: in singlicate; n = 1;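 also: KINOMEscan kinase panel screen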
Enter your answer as a number in %; do not include the unit.

See these solved cases before continuing.
CC(=O)N1CCN(c2ccc(Nc3nccc(-c4sc(C(C)C)nc4-c4cccc(NS(=O)(=O)c5cccc(Cl)c5)c4)n3)cn2)CC1 = 61
Cl.c1ccc(-c2ccc3c(Nc4ccc5[nH]ccc5c4)ccnc3c2)nc1 = 0
Cc1cccc(NC(=O)Nc2ccc(Oc3ncnc4ccn(C)c34)cc2)c1 = 0
O=C(Nc1cccc(Oc2ccc3nc(NC(=O)C4CC4)cn3n2)c1)c1ccccc1C(F)(F)F = 0
CCn1c(-c2nonc2N)nc2c(C#CC(C)(C)O)nc(OC[C@H](N)c3ccccc3)cc21 = 2

So what does the record say about %Inh for O=C(Nc1n[nH]c2nc(-c3ccc(O)cc3)ccc12)C1CC1 ?
25

Please give the measured %Inh for this compound: CCn1c(-c2nonc2N)nc2c(C#CC(C)(C)O)ncc(OCCCCN)c21.O=C(O)C(F)(F)F.O=C(O)C(F)(F)F
4

Query (compound): Nc1n[nH]c2cnc(-c3ccccc3)cc12 ; field requested: %Inh
0

For the compound CNC(=O)c1ccccc1Nc1nc(Nc2ccc(N3CCOCC3)cc2)ncc1Cl.Cl , what %Inh is on record?
87

---

# Test system: TAOK1
# Experimental Setup: concentration: 1 μM, replicates: in singlicate; n = 1
Each entry below lists one item and its recorded %Inh value.
Number only, in %; omit the unit.

Worked cases, %Inh given:
Cl.Cl.NCC(NC(=O)c1cc(-c2ccccc2)c(-c2ccnc3[nH]ccc23)s1)c1ccccc1 (stereo not shown) = 4
Fc1ccc(-c2ncn(C3CCNCC3)c2-c2ccnc(Oc3ccc(-c4ccccc4)cc3)n2)cc1 = 28

// returns reported %Inh for input Nc1ncc(-c2ccc3nccc(-c4ccncc4)c3c2)cc1S(=O)(=O)N1CCOCC1
0

Fill in the blank: the reported %Inh of Cl.c1ccc(-c2ccc3c(Nc4ccc5[nH]ccc5c4)ccnc3c2)nc1 is ____.
0

---

# Test system: CAMK1B
# Experimental Setup: concentration: 1 μM, replicates: in singlicate; n = 1
%Inh reference
Express your answer in %, writing the number without its unit.

Cc1ccc(C(=O)N2CC[C@@H](O)C2)cc1-n1c(C)cc(OCc2ccc(F)cc2F)c(Br)c1=O = 0
CN(c1ccc(NC(=O)Nc2cc(C(F)(F)F)ccc2F)cc1)c1ccnc(Nc2ccc(S(N)(=O)=O)cc2)n1 [GW809893] = 0
c1ccc(Oc2ccc(Nc3ccnc4cc(-c5ccc(CNCCN6CCOCC6)o5)ccc34)cc2)nc1 [GW567145] = 0
CCn1c(-c2nonc2N)nc2c(C#CC(C)(C)O)nc(OC[C@H](N)c3ccccc3)cc21 [GSK943949] = 0
CN(C)S(=O)(=O)c1cc(-c2ccc3nccc(-c4cccc(S(N)(=O)=O)c4)c3c2)cnc1N [GSK1669921] = 0

Enter reported %Inh observed with CAMK1B for CN1CCN(CCCNc2nccc(-c3c(-c4ccc(F)cc4)nn4cc(C(F)(F)F)ccc34)n2)CC1 [GW621581]
5

What value of %Inh on CAMK1B does CN(C)Cc1ccc(-c2ccc3c(Nc4ccc(Oc5ccccn5)cc4)ccnc3c2)o1 [GW567148] have?
0

What value of %Inh on CAMK1B does Oc1cc(Nc2ccnc3cc(I)ccc23)ccc1F [GW552771] have?
37

What reported %Inh corresponds to CC(C)(C)c1ccc2nccc(Nc3cccc(O)c3)c2c1 [GW856795] on CAMK1B?
68

Write down the reported %Inh of Cl.c1ccc(-c2ccc3c(Nc4ccc5[nH]ncc5c4)ccnc3c2)nc1 [GW440137] , test system: CAMK1B.
36

Find the measured %Inh: item COc1ccc(CNC(=O)NC2CCN(c3ccnc(Nc4ccc(F)cc4)n3)CC2)cc1 [GSK1379788] , target or system CAMK1B.
7

%Inh of O=C(Nc1ccccc1F)NC1CCN(c2ccnc(Nc3ccc(F)cc3)n2)CC1 [GSK1379800] on CAMK1B?
36

Any idea what %Inh came out for COC(=O)Nc1nc2ccc(Oc3ccc(NC(=O)Nc4cc(C(F)(F)F)ccc4F)cc3)cc2n1C.Cl [GW692089] on CAMK1B?
0

Item FC(F)(F)c1ccc(/C=C/c2cncnc2Nc2ccc3[nH]c(Cc4ccccc4)nc3c2)cc1 [GW709199] with CAMK1B - %Inh?
0

So what %Inh did O=C(NC1CCN(c2ccnc(Nc3ccc(F)cc3)n2)C1)c1cc2ccccc2s1 (centres unmarked) [GSK1379716] get with CAMK1B?
9

Quick check: %Inh on CAMK1B, item C[C@@H]1CC[C@@H](C(=O)Nc2ccccc2)CN1c1cc(-c2ccc3c(N)n[nH]c3c2)nc(N)n1 [GSK2286062] ?
0

Please tell me: %Inh of O=C(Nc1cccc(-c2nn3ncccc3c2-c2ccnc(Nc3ccccc3)n2)c1)c1c(F)cccc1F [GSK198271] , system CAMK1B?
9
